Molecular target: HDAC6 enzyme (Homo sapiens, UniProt Q9UBN7)
Construct: transducing full length HDAC1 and HDAC6 genes into Sf-9 insect cells; GST; purchased SignalChem; host or cells: Sf-9 insect cells
Sequence (Q9UBN7 1-1215): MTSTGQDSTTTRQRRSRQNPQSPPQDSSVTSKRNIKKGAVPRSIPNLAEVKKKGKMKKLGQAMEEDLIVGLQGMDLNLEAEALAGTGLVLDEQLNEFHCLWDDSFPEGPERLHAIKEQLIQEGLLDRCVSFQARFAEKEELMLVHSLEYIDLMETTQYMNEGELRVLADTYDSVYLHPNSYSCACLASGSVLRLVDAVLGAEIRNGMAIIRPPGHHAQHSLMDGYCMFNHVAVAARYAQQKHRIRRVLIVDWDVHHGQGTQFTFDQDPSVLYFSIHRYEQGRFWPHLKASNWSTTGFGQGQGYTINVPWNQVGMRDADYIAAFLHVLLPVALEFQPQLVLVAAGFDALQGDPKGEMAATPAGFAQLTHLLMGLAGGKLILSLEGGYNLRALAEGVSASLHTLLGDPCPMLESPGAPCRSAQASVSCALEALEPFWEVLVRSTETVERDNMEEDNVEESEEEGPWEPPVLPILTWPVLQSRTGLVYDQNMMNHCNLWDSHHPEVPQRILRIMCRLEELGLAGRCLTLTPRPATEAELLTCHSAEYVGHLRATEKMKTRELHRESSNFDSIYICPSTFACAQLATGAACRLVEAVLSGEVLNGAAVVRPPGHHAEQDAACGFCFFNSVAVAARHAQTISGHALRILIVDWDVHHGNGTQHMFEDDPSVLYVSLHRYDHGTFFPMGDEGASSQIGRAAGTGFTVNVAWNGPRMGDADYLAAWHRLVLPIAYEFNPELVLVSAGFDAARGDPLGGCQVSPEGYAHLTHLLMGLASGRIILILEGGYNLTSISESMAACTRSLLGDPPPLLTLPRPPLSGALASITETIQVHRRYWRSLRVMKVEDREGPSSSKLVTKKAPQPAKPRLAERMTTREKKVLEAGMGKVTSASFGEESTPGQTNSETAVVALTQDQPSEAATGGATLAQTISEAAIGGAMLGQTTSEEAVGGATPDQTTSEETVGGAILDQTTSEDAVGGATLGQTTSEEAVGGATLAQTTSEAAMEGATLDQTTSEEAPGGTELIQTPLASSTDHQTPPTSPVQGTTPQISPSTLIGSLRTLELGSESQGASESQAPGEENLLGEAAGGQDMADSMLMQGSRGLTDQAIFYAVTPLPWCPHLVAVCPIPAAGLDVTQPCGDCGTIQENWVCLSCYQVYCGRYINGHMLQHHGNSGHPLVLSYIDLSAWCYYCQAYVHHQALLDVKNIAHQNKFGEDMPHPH
Assay: HDAC1/6 Enzyme Inhibitory Assay (HDAC-Glo I/II Assay kit), HDAC6
Type: biochemical
Settings: 1 μM test compound; wells without enzyme = 100% inhibition; read-out: HDAC6 inhibitory rate (%) (1 μM)
QUANTITY_NAME: inhibition at 1 µM (%)

COMPOUND: O=C(N[C@H]1CCOC[C@H]1N1Cc2ccc(-c3noc(C(F)(F)F)n3)cc2C1=O)C1CC1(F)F (single isomer, unassigned)
QUANTITY_NAME: inhibition at 1 µM
EXPERIMENTAL_VALUE: 96
//
COMPOUND: O=C(N[C@@H]1CCCC[C@H]1N1Cc2ccc(-c3noc(C(F)(F)F)n3)cc2C1=O)C1CC1 (relative stereo) [Example 12]
QUANTITY_NAME: inhibition at 1 µM
EXPERIMENTAL_VALUE: 98
//
COMPOUND: CC(=O)N1CCC(N2Cc3ncc(-c4noc(C(F)(F)F)n4)cc3C2=O)C1 (centres unmarked)
QUANTITY_NAME: inhibition at 1 µM
EXPERIMENTAL_VALUE: 91
//
COMPOUND: O=C1CCCN1[C@H]1COCC[C@@H]1N1Cc2ccc(-c3noc(C(F)(F)F)n3)cc2C1=O
QUANTITY_NAME: inhibition at 1 µM
EXPERIMENTAL_VALUE: 74
//
COMPOUND: CC1(C)CC1C(=O)N[C@@H]1CCCC[C@H]1N1Cc2ccc(-c3noc(C(F)(F)F)n3)cc2C1=O (some centres unmarked)
QUANTITY_NAME: inhibition at 1 µM
EXPERIMENTAL_VALUE: 99
//
COMPOUND: O=C(N[C@@H]1CCCC[C@H]1N1Cc2ccc(-c3noc(C(F)(F)F)n3)cc2C1=O)c1cocn1
QUANTITY_NAME: inhibition at 1 µM
EXPERIMENTAL_VALUE: 102
//
COMPOUND: O=C(NC1COC1)N[C@@H]1CCCC[C@H]1N1Cc2ccc(-c3noc(C(F)(F)F)n3)cc2C1=O
QUANTITY_NAME: inhibition at 1 µM
EXPERIMENTAL_VALUE: 96
//
COMPOUND: CC(=O)N1CC[C@@H](N2Cc3ccc(-c4noc(C(F)(F)F)n4)cc3C2=O)[C@H](c2ccccc2)C1
QUANTITY_NAME: inhibition at 1 µM
EXPERIMENTAL_VALUE: 98
//
COMPOUND: O=C(N[C@H]1CCCC[C@@H]1N1Cc2ccc(-c3noc(C(F)(F)F)n3)cc2C1=O)[C@@H]1CCCO1
QUANTITY_NAME: inhibition at 1 µM
EXPERIMENTAL_VALUE: 82
//
COMPOUND: O=C(CCC(F)F)N[C@@H]1CCCC[C@H]1N1Cc2ccc(-c3noc(C(F)(F)F)n3)cc2C1=O
QUANTITY_NAME: inhibition at 1 µM
EXPERIMENTAL_VALUE: 100
//
COMPOUND: CC(C)(C)N1CC(C(=O)N[C@@H]2CCCC[C@H]2N2Cc3ccc(-c4noc(C(F)(F)F)n4)cc3C2=O)C1
QUANTITY_NAME: inhibition at 1 µM
EXPERIMENTAL_VALUE: 39
//
COMPOUND: C[C@H](c1ccccc1)N1CC[C@H]2CC[C@H](N3Cc4ccc(-c5noc(C(F)(F)F)n5)cc4C3=O)[C@H]21
QUANTITY_NAME: inhibition at 1 µM
EXPERIMENTAL_VALUE: 90
//
COMPOUND: O=C(Cc1ccc(F)cc1)N1CCC(N2Cc3ncc(-c4noc(C(F)(F)F)n4)cc3C2=O)CC1
QUANTITY_NAME: inhibition at 1 µM
EXPERIMENTAL_VALUE: 90
//
COMPOUND: O=C(c1ccccc1)N1CCCC(N2Cc3ncc(-c4noc(C(F)(F)F)n4)cc3C2=O)C1 (centres unmarked)
QUANTITY_NAME: inhibition at 1 µM
EXPERIMENTAL_VALUE: 95

Where do these numbers come from? They come from patent US10308643B2.
